Ref: PubChem BioAssay (NCI)

Some molecules, each annotated with its measured TGI.
- System: MALME-3M melanoma
- Protocol Notes: NCI tumour cell line growth inhibition, 48 h

Molecule	Op	TGI (µM)
O=C(c1cccs1)c1c(C(F)(F)F)n([O-])c2ccc(Cl)cc2[n+]1=O	=	13.9
O=C1CC2C=CC1C2CO (stereo unspecified)	>	100
COc1ccc(NC(=O)CC(=O)NN2C(=O)/C(=C/c3ccc(N(CCC#N)CCC#N)cc3C)N=C2/C=C\c2ccccc2)cc1	>	100
N#CCCN(CCC#N)c1ccc(/C=C2\N=C(c3cc([N+](=O)[O-])ccc3Cl)N(S(=O)(=O)c3ccccc3)C2=O)cc1	>	100
COc1cccc(C2c3cc4c(cc3OC(NNc3ccccc3)C2C)OCO4)c1OC (stereo unspecified)	=	70.7
O=C1C=C2C(=CCOC2O)O1 (stereo unspecified)	=	2.04
O=C1C=C(Nc2cccnc2)c2ccccc2C1=O	=	5.35
NC(N)=N/N=C\c1c(-c2cccc([N+](=O)[O-])c2)nc2sc(Cl)cn12	=	5.04
O=c1ccc2[n+]([O-])c3ccc(O)cc3oc-2c1	=	18.3
COc1ccc(-n2cnc3c(NCC(=O)O)ncnc32)cc1	>	100
Cc1oc2nc[nH]c(=O)c2c1C(=O)/C=C/c1ccc(Br)cc1	=	6
c1ccc(-c2cn3nc(N4CCOCC4)sc3n2)cc1	>	100
C/C(=N\NC(=S)N1CCN(c2ccccn2)CC1)c1cccc(C)n1	=	19.3
CC(=O)O[C@H]1C(=O)[C@@]2(C)[C@H]([C@H](OC(=O)C3CCCCC3)[C@]3(O)C[C@H](OC(=O)[C@H](O)[C@@H](NC(=O)OC(C)(C)C)c4ccccc4)C(C)=C1C3(C)C)[C@]1(OC(C)=O)CO[C@@H]1C[C@@H]2O	=	5.07
O=c1[nH]c2c3ccncc3cc(-c3cccc(Cl)c3)c2c2cnccc12	>	100
S=c1[nH]nc(C23CC4CC(CC(C4)C2)C3)n1-c1ccc(Cl)cc1	=	63.3
CCN(CC)c1c(C)c(C(=O)OC)nn1-c1ccccc1	>	100
CCCCc1ccc(N2C(=O)c3cc([N+](=O)[O-])cnc3S2(=O)=O)cc1	>	100
Cc1ccc(S(=O)(=O)/N=C(\NO)Nc2ccc(Cl)c(Cl)c2)cc1	=	7.41
COc1cc2c3c(c1OC)-c1ccccc1C(C(O)c1ccccc1)C3N(C)CC2 (stereo unspecified)	=	35
O=C1c2ccccc2OCC1/C=N/O (stereo unspecified)	>	100

====

- Tested on: SK-MEL-28 melanoma
- Protocol Notes: NCI tumour cell line growth inhibition, 48 h
Some compounds, each annotated with its measured TGI.

Compound	Units Symbol	Op	TGI
O=C(O)c1ccccc1/C=C1\Cc2ccccc2C1=O	µM	>	100
CCC(C)C1=NC(C(=O)N/C=C\c2c[nH]c3cc(Br)c(Br)cc23)(C(C)C)NC1=O (centres undefined)	µM	=	32.7
CN1C(=O)C23CC4(C56CC78SSC(CO)(C(=O)N7C5Nc5ccccc56)N(C)C8=O)c5ccccc5NC4N2C(=O)C1(CO)SS3 (centres undefined)	µM	=	0.0695
CC(=O)OCC1OC(n2c(-c3ccc(Cl)cc3)cc(-c3ccccc3)c(C#N)c2=S)C(OC(C)=O)C(OC(C)=O)C1OC(C)=O (centres undefined)	µM	=	23.4
NCC(O)CSP(=O)(O)O (centres undefined)	µM	>	100
NC(N)=NS(=O)(=O)c1ccc(NC(=O)c2cccc3cc4ccccc4nc23)cc1	µM	>	100
Cc1cc(C)nc(NS(=O)(=O)c2ccc(Nc3c4ccccc4nc4c(C(=O)N5CCN(CCO)CC5)ccc(Cl)c34)cc2)n1	µM	>	100
CCC1(CN(C)C)CC/C(=C\c2ccc(OC)cc2)C1=O (centres undefined)	µM	>	100
CCOC(=O)C#Cc1c(C(=O)OCC)nnn1Cc1ccc(C(F)(F)F)cc1	µM	=	5.91
